Quick note: these are pKi numbers for system: Kappa-type opioid receptor (Mus musculus, UniProt P33534)
Sequence (P33534 whole entry): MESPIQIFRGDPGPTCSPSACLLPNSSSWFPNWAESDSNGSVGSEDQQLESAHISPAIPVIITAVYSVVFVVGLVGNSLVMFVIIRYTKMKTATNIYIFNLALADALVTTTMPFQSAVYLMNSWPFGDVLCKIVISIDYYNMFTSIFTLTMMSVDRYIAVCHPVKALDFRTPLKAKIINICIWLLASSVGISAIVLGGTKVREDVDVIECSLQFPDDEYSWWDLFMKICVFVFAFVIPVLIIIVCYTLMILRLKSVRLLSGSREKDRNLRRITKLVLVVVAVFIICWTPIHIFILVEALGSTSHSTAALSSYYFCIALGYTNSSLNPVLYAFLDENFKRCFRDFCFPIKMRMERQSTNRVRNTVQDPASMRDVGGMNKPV
# pKi = -log10(concentration in molar units)

Quick check: pKi on Kappa-type opioid receptor (Mus musculus, UniProt P33534), item O=C(N[C@H]1CC[C@@]2(O)[C@H]3Cc4ccc(O)c5c4[C@@]2(CCN3CC2CC2)[C@H]1O5)c1ccco1 ?
8.71

And for O=C(N[C@@H]1CC[C@@]2(O)[C@H]3Cc4ccc(O)c5c4[C@@]2(CCN3CC2CC2)[C@H]1O5)c1cc[nH]c1 ?
8.35

Queued: O=C(Cc1ccc[nH]1)N[C@H]1CC[C@@]2(O)[C@H]3Cc4ccc(O)c5c4[C@@]2(CCN3CC2CC2)[C@H]1O5
8.54

Ok, now O=C(CCc1cc[nH]c1)N[C@@H]1CC[C@@]2(O)[C@H]3Cc4ccc(O)c5c4[C@@]2(CCN3CC2CC2)[C@H]1O5
8.57

Now try O=C(Cc1ccoc1)N[C@@H]1CC[C@@]2(O)[C@H]3Cc4ccc(O)c5c4[C@@]2(CCN3CC2CC2)[C@H]1O5 .
8.43

Cool, now O=C(Cc1cc[nH]c1)N[C@H]1CC[C@@]2(O)[C@H]3Cc4ccc(O)c5c4[C@@]2(CCN3CC2CC2)[C@H]1O5
7.72

Same thing, different compound: O=C(N[C@@H]1CC[C@@]2(O)[C@H]3Cc4ccc(O)c5c4[C@@]2(CCN3CC2CC2)[C@H]1O5)c1ccco1
8.89

---

The following molecules each carry a recorded pKi for UniProt:P42866.
Scale: pKi equals -log10([C]), with [C] in mol/L.

Record request: pKi value, item O=C(Cc1ccco1)N[C@@H]1CC[C@@]2(O)[C@H]3Cc4ccc(O)c5c4[C@@]2(CCN3CC2CC2)[C@H]1O5
9.64

Likewise for O=C(Cc1ccsc1)N[C@@H]1CC[C@@]2(O)[C@H]3Cc4ccc(O)c5c4[C@@]2(CCN3CC2CC2)[C@H]1O5 ?
9.70

Also O=C(Cc1ccc[nH]1)N[C@@H]1CC[C@@]2(O)[C@H]3Cc4ccc(O)c5c4[C@@]2(CCN3CC2CC2)[C@H]1O5 , if possible.
9.80

Continue with O=C(N[C@@H]1CC[C@@]2(O)[C@H]3Cc4ccc(O)c5c4[C@@]2(CCN3CC2CC2)[C@H]1O5)c1ccco1
9.52

Same for O=C(N[C@H]1CC[C@@]2(O)[C@H]3Cc4ccc(O)c5c4[C@@]2(CCN3CC2CC2)[C@H]1O5)c1ccoc1
9.30

Record: O=C(N[C@H]1CC[C@@]2(O)[C@H]3Cc4ccc(O)c5c4[C@@]2(CCN3CC2CC2)[C@H]1O5)c1cc[nH]c1
8.88

Request: O=C(Cc1ccsc1)N[C@H]1CC[C@@]2(O)[C@H]3Cc4ccc(O)c5c4[C@@]2(CCN3CC2CC2)[C@H]1O5
9.64

Record: O=C(CCc1cc[nH]c1)N[C@@H]1CC[C@@]2(O)[C@H]3Cc4ccc(O)c5c4[C@@]2(CCN3CC2CC2)[C@H]1O5
9.39

// query: O=C(CCc1ccc[nH]1)N[C@@H]1CC[C@@]2(O)[C@H]3Cc4ccc(O)c5c4[C@@]2(CCN3CC2CC2)[C@H]1O5
9.28

Try this molecule next: O=C(N[C@@H]1CC[C@@]2(O)[C@H]3Cc4ccc(O)c5c4[C@@]2(CCN3CC2CC2)[C@H]1O5)c1ccoc1
8.07

---

Target: Delta-type opioid receptor (Homo sapiens, UniProt P41143)
Sequence (P41143 whole entry): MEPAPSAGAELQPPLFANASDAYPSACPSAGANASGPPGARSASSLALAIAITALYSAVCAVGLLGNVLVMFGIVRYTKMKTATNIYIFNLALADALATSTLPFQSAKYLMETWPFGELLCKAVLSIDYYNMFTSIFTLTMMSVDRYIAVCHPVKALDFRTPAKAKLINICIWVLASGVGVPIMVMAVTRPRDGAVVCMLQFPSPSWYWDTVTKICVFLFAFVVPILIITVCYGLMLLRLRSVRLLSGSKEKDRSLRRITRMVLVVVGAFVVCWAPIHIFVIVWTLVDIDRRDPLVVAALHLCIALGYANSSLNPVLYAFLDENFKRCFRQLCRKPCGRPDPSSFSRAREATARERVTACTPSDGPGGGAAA
measure-name: pKi
Kindly note that pKi refers to -log10 of the concentration in mol/L and answer with the value alone.

# get_value(readout='pKi', item= O=C(Cc1cccs1)N[C@@H]1CC[C@@]2(O)[C@H]3Cc4ccc(O)c5c4[C@@]2(CCN3CC2CC2)[C@H]1O5 )
7.19

Same again, this time with O=C(N[C@@H]1CC[C@@]2(O)[C@H]3Cc4ccc(O)c5c4[C@@]2(CCN3CC2CC2)[C@H]1O5)c1ccco1
7.07

Another: O=C(N[C@H]1CC[C@@]2(O)[C@H]3Cc4ccc(O)c5c4[C@@]2(CCN3CC2CC2)[C@H]1O5)c1cc[nH]c1
7.39

Follow-up entry: O=C(Cc1cc[nH]c1)N[C@H]1CC[C@@]2(O)[C@H]3Cc4ccc(O)c5c4[C@@]2(CCN3CC2CC2)[C@H]1O5
7.84

How about O=C(N[C@@H]1CC[C@@]2(O)[C@H]3Cc4ccc(O)c5c4[C@@]2(CCN3CC2CC2)[C@H]1O5)c1ccoc1 ?
5.70

// same read-out, input: O=C(N[C@H]1CC[C@@]2(O)[C@H]3Cc4ccc(O)c5c4[C@@]2(CCN3CC2CC2)[C@H]1O5)c1ccoc1
7.54

Further, for O=C(Cc1ccsc1)N[C@@H]1CC[C@@]2(O)[C@H]3Cc4ccc(O)c5c4[C@@]2(CCN3CC2CC2)[C@H]1O5 ?
7.44

Another: O=C(CCc1cccs1)N[C@H]1CC[C@@]2(O)[C@H]3Cc4ccc(O)c5c4[C@@]2(CCN3CC2CC2)[C@H]1O5
8.65

---

Let's go through some recorded pKi values for Mu-type opioid receptor (Mus musculus, UniProt P42866) together.
Lab note: report pKi as minus log10 of the concentration in molar units, number only.

Report pKi for O=C(Cc1cc[nH]c1)N[C@@H]1CC[C@@]2(O)[C@H]3Cc4ccc(O)c5c4[C@@]2(CCN3CC2CC2)[C@H]1O5 tested on Mu-type opioid receptor (Mus musculus, UniProt P42866).
Sequence (P42866 whole entry): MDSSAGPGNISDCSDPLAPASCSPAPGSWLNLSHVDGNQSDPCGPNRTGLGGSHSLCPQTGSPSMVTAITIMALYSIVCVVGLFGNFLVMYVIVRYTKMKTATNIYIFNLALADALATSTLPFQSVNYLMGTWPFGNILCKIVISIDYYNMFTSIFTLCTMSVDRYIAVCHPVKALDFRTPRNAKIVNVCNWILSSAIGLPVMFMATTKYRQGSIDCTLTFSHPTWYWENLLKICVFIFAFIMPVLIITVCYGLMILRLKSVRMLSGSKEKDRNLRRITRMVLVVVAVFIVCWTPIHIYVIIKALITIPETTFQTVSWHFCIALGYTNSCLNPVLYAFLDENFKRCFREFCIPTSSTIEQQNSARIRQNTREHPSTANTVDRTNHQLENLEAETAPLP
9.55

Then this compound: O=C(CCc1ccc[nH]1)N[C@H]1CC[C@@]2(O)[C@H]3Cc4ccc(O)c5c4[C@@]2(CCN3CC2CC2)[C@H]1O5
9.24

// next record O=C(Cc1cc[nH]c1)N[C@H]1CC[C@@]2(O)[C@H]3Cc4ccc(O)c5c4[C@@]2(CCN3CC2CC2)[C@H]1O5
8.44

Moving on to O=C(CCc1cc[nH]c1)N[C@H]1CC[C@@]2(O)[C@H]3Cc4ccc(O)c5c4[C@@]2(CCN3CC2CC2)[C@H]1O5
9.15

---

Test system: Mus musculus
Experiment: Antinociceptive activity against Swiss Webster mouse model assessed as increase in tail withdrawal latency from warm water by measuring maximum possible effect at 10 mg/kg, sc measured after 20 min by warm water tail immersion assay
Type: functional, organism-based
The source made the active and inactive calls. No cut-off for these calls is given here.
The reply should name one outcome from active, inactive

Which outcome was assigned to O=C(Cc1ccsc1)N[C@H]1CC[C@@]2(O)[C@H]3Cc4ccc(O)c5c4[C@@]2(CCN3CC2CC2)[C@H]1O5 in this test?
inactive

And O=C(Cc1ccsc1)N[C@@H]1CC[C@@]2(O)[C@H]3Cc4ccc(O)c5c4[C@@]2(CCN3CC2CC2)[C@H]1O5 ?
inactive

Further, for O=C(Cc1cccs1)N[C@@H]1CC[C@@]2(O)[C@H]3Cc4ccc(O)c5c4[C@@]2(CCN3CC2CC2)[C@H]1O5 ?
inactive

Request: O=C(N[C@@H]1CC[C@@]2(O)[C@H]3Cc4ccc(O)c5c4[C@@]2(CCN3CC2CC2)[C@H]1O5)c1ccco1
inactive

Thanks! And O=C(N[C@H]1CC[C@@]2(O)[C@H]3Cc4ccc(O)c5c4[C@@]2(CCN3CC2CC2)[C@H]1O5)c1ccco1 ?
inactive

Entry to check: O=C(CCc1ccsc1)N[C@@H]1CC[C@@]2(O)[C@H]3Cc4ccc(O)c5c4[C@@]2(CCN3CC2CC2)[C@H]1O5
active

Can you check O=C(Cc1cccs1)N[C@H]1CC[C@@]2(O)[C@H]3Cc4ccc(O)c5c4[C@@]2(CCN3CC2CC2)[C@H]1O5 next?
inactive

Also need O=C(Cc1cc[nH]c1)N[C@H]1CC[C@@]2(O)[C@H]3Cc4ccc(O)c5c4[C@@]2(CCN3CC2CC2)[C@H]1O5 , thanks.
inactive

Cool, now O=C(CCc1ccc[nH]1)N[C@@H]1CC[C@@]2(O)[C@H]3Cc4ccc(O)c5c4[C@@]2(CCN3CC2CC2)[C@H]1O5
active

// next record O=C(CCc1ccoc1)N[C@H]1CC[C@@]2(O)[C@H]3Cc4ccc(O)c5c4[C@@]2(CCN3CC2CC2)[C@H]1O5
inactive

Okay, and O=C(N[C@@H]1CC[C@@]2(O)[C@H]3Cc4ccc(O)c5c4[C@@]2(CCN3CC2CC2)[C@H]1O5)c1cccs1 ?
inactive

Note, next up: O=C(CCc1ccco1)N[C@H]1CC[C@@]2(O)[C@H]3Cc4ccc(O)c5c4[C@@]2(CCN3CC2CC2)[C@H]1O5
inactive

And the next one, O=C(CCc1ccsc1)N[C@H]1CC[C@@]2(O)[C@H]3Cc4ccc(O)c5c4[C@@]2(CCN3CC2CC2)[C@H]1O5 ?
inactive

Input O=C(Cc1ccco1)N[C@H]1CC[C@@]2(O)[C@H]3Cc4ccc(O)c5c4[C@@]2(CCN3CC2CC2)[C@H]1O5
inactive

Also check O=C(CCc1cccs1)N[C@H]1CC[C@@]2(O)[C@H]3Cc4ccc(O)c5c4[C@@]2(CCN3CC2CC2)[C@H]1O5
inactive
